Target entity: BaF3 cells expressing the target EGFR mutations (Homo sapiens, UniProt P00533, T790M/L858R, cells depend on it)
Construct: IC50, BAF3 EGFR L858R-T790M PURO POOL; other: BAF3 EGFR L858R-T790M PURO POOL cells, MTT; IC50, BAF3 EGFR L858R-T790M PURO POOL; other: BAF3 EGFR L858R-T790M PURO POOL cells; MTT
Sequence (P00533 whole entry T790M/L858R): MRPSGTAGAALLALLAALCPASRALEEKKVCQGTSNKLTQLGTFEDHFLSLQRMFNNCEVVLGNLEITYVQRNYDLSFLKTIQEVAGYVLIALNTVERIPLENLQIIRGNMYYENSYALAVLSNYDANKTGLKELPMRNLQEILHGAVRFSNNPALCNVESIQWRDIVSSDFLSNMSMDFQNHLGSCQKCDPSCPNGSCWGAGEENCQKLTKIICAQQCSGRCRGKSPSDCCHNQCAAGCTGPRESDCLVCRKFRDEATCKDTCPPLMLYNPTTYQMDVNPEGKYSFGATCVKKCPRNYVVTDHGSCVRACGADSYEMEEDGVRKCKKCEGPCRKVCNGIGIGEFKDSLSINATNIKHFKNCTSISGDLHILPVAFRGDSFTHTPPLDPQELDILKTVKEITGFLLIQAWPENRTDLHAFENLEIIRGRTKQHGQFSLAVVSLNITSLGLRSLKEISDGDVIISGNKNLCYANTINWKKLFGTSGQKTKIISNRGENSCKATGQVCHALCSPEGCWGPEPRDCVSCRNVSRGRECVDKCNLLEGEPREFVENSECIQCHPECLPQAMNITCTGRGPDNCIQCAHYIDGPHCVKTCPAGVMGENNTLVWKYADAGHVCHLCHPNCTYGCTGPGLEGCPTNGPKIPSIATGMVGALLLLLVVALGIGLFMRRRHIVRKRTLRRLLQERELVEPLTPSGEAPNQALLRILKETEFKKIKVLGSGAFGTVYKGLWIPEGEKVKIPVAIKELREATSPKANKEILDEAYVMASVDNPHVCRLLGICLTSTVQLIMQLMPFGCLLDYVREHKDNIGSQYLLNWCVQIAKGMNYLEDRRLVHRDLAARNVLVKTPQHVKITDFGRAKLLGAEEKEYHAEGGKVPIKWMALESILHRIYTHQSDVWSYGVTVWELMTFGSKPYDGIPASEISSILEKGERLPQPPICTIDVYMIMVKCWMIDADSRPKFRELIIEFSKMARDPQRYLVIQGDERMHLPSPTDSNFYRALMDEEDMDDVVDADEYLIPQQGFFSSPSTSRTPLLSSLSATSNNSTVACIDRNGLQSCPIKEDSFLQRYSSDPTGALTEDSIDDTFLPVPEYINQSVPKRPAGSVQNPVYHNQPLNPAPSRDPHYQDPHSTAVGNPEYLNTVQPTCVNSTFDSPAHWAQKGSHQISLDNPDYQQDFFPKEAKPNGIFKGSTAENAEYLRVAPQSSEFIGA
Protocol notes: Antiproliferative activity (MTT) against BaF3 cells expressing the target EGFR mutations
Format: cell-based
Measurement conditions: BAF3 EGFR L858R-T790M PURO POOL cells, read-out: IC50, BAF3 EGFR L858R-T790M PURO POOL
Overview of reported GI50 across a group of compounds:

Consider the following illustrative entries.
Compound: C=CC(=O)Nc1ccc(OC)c(Nc2ncc(Cl)c(Nc3ccc(OCCOC)cc3P(C)(C)=O)n2)c1 [Example 86]
Observed value: 50 to 100 nM
--
Compound: C=CC(=O)Nc1cc(Nc2ncc(Cl)c(Nc3ccccc3P(C)(C)=O)n2)c(OC)cc1N1CC[C@@H](N(C)C)C1 (stereo in doubt) [Example 26]
Observed value: < 50 nM
--
Compound: C=C(CN1CCN(C(C)C)CC1)C(=O)Nc1ccc(OC)c(Nc2ncc(Cl)c(Nc3ccccc3P(C)(C)=O)n2)c1 [Example 50]
Observed value: < 50 nM

[ask] Which GI50 value belongs to C=CC(=O)Nc1ccc(OC)c(Nc2ncc(Cl)c(Nc3ccc(OCCN4CCCCC4)cc3P(C)(C)=O)n2)c1 [Example 108] ?
[reply] < 50 nM

[ask] Now this one: C=C(CN1CCCCC1)C(=O)Nc1ccc(OC)c(Nc2ncc(Cl)c(Nc3ccccc3P(C)(C)=O)n2)c1 [Example 43]
[reply] < 50 nM

----------
Overview of reported GI50 across a group of compounds:
Target entity: BaF3 cells expressing the target EGFR mutations (Homo sapiens, UniProt P00533, T790M, cells depend on it, form not given)
Construct: IC50, BAF3 EGFR DEL T790M PURO POOL; other: BAF3 EGFR DEL T790M PURO POOL cells, MTT; other: BAF3 EGFR DEL T790M PURO POOL cells; MTT
Sequence (P00533 with tags, fused parts or gaps DEL746-750/T790M, form open): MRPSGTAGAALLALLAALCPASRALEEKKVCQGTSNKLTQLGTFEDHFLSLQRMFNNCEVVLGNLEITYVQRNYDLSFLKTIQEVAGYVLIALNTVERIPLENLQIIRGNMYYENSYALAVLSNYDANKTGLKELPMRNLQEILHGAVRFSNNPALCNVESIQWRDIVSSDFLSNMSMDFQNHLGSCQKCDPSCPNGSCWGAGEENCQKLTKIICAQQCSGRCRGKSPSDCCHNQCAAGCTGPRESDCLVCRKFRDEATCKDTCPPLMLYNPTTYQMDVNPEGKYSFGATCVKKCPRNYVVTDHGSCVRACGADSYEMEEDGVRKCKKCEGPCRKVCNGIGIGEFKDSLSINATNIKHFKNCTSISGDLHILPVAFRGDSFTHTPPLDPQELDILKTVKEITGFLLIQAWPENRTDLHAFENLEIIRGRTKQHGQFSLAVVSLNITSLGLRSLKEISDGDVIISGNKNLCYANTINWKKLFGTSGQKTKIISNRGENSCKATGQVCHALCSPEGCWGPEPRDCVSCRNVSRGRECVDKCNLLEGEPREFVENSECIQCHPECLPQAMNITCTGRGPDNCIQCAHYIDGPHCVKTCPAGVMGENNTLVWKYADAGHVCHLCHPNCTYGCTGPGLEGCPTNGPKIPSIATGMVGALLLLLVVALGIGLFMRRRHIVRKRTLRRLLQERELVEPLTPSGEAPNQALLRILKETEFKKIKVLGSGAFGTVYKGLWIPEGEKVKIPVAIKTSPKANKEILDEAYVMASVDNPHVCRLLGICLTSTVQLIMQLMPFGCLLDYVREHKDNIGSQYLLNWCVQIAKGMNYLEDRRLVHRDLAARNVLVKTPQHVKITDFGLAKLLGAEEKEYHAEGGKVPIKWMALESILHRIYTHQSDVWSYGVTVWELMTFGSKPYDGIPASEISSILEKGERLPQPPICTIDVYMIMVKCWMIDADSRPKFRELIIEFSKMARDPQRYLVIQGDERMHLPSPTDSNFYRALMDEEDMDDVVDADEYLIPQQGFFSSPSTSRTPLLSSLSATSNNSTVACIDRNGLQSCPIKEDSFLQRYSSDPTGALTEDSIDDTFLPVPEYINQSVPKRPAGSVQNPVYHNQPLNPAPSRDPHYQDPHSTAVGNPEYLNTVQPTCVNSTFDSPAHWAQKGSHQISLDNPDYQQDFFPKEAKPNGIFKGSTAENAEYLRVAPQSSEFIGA
Protocol notes: Antiproliferative activity (MTT) against BaF3 cells expressing the target EGFR mutations
Assay type: cell-based
Measurement conditions: BAF3 EGFR DEL T790M PURO POOL cells, read-out: IC50, BAF3 EGFR DEL T790M PURO POOL

Consider the following illustrative entries.
Compound: C=CC(=O)Nc1ccc(F)c(Nc2ncc(Cl)c(Nc3ccccc3P(C)(C)=O)n2)c1
GI50: < 50 nM
--
Compound: C=CC(=O)Nc1cc(Nc2ncc(Cl)c(Nc3ccccc3P(C)(C)=O)n2)c(OC)cc1OCCN1CCCC1
GI50: < 50 nM
--
Compound: C=CC(=O)Nc1cc(Nc2ncc(Cl)c(Nc3ccccc3P(C)(C)=O)n2)c(OC)cc1C#CC(C)(C)N1CCCC1
GI50: < 50 nM
--
Compound: COc1cc(F)c(NC(=O)C#CCN(C)C)cc1Nc1ncc(Cl)c(Nc2ccccc2P(C)(C)=O)n1
GI50: < 50 nM
--
Compound: C=CC(=O)Nc1cc(Nc2ncc(Cl)c(Nc3ccccc3P(C)(C)=O)n2)c(OC)cc1N(C)CCN(C)CCF
GI50: < 50 nM

[ask] Which GI50 value belongs to C=CC(=O)Nc1cc(Nc2ncc(Cl)c(Nc3ccccc3P(C)(C)=O)n2)c(OC)cc1OCC1CCCCN1C (stereo not drawn) ?
[reply] < 50 nM

[ask] Now this one: `C=CC(=O)Nc1cc(Nc2ncc(Cl)c(Nc3ccccc3P(C)(C)=O)n2)c(OC)cc1C#CCN(C)C1CCCC1`
[reply] < 50 nM

[ask] Now this one: `C=C(CN1CCC(N2CCN(C)CC2)CC1)C(=O)Nc1ccc(OC)c(Nc2ncc(Cl)c(Nc3ccccc3P(C)(C)=O)n2)c1`
[reply] < 50 nM

[ask] Now this one: `C=CC(=O)Nc1cc(Nc2ncc(Cl)c(Nc3ccccc3P(C)(C)=O)n2)c(OC)cc1OCc1cccnc1`
[reply] 50 to 100 nM

[ask] Now this one: `COc1ccc(NC(=O)C#CCN(C)C)cc1Nc1ncc(Cl)c(Nc2ccccc2P(C)(C)=O)n1`
[reply] < 50 nM

[ask] Now this one: `C=CC(=O)Nc1cc(Nc2ncc(Cl)c(Nc3ccccc3P(C)(C)=O)n2)c(OC)cc1N1CCC(N2CCN(C)CC2)CC1`
[reply] 50 to 100 nM

[ask] Now this one: `C=CC(=O)Nc1cc(Nc2ncc(Cl)c(Nc3ccccc3P(C)(C)=O)n2)c(OC)cc1OCC1CCOCC1`
[reply] 50 to 100 nM

[ask] Now this one: `C=CC(=O)Nc1ccc(OC)c(Nc2ncc(Cl)c(Nc3ccc(OCCCN(C)C)cc3P(C)(C)=O)n2)c1`
[reply] < 50 nM

[ask] Now this one: C=C(CN1CCC(O)C1)C(=O)Nc1ccc(OC)c(Nc2ncc(Cl)c(Nc3ccccc3P(C)(C)=O)n2)c1 (stereo not drawn)
[reply] < 50 nM

[ask] Now this one: `C=CC(=O)Nc1cc(Nc2ncc(Cl)c(Nc3ccccc3P(C)(C)=O)n2)c(OC)cc1C#CCN(C(C)C)C(C)C`
[reply] < 50 nM

[ask] Now this one: C=CC(=O)Nc1cc(Nc2ncc(Cl)c(Nc3ccccc3P(C)(C)=O)n2)c(OC)cc1N1CCCC(N(C)C)C1 (stereo not drawn)
[reply] < 50 nM

[ask] Now this one: `C=CC(=O)Nc1cc(Nc2ncc(Cl)c(Nc3ccccc3P(C)(C)=O)n2)c(OC)cc1C#CCN(C)CC`
[reply] < 50 nM

[ask] Now this one: `Cc1ccc(NC(=O)CCl)cc1Nc1ncc(Cl)c(Nc2ccccc2P(C)(C)=O)n1`
[reply] < 50 nM

[ask] Now this one: `C=CC(=O)Nc1ccc(OC(F)(F)F)c(Nc2ncc(Cl)c(Nc3ccccc3P(C)(C)=O)n2)c1`
[reply] < 50 nM

[ask] Now this one: C=C(C)C(=O)Nc1cc(Nc2ncc(Cl)c(Nc3ccccc3P(C)(C)=O)n2)c(OC)cc1N1CC[C@@H](N(C)C)C1 (racemic)
[reply] < 50 nM

[ask] Now this one: C=CC(=O)Nc1cc(Nc2ncc(Cl)c(Nc3ccccc3P(C)(C)=O)n2)c(OC)cc1N1CCC(N2CCN(CCO)CC2)C1 (stereo not drawn)
[reply] ≥ 250 nM
